Hi there, I'd appreciate the recorded Tm for every entry that follows.
- ASSAY_PROCEDURE: melting temperature; fluorescence melt of hairpins on a sequencing array, two-state fit, raised by 9.35 °C to match UV melts
- COND: sodium 0.088 M
One number for each entry, in °C.

The following sequences have reported results that may help.
[
  {
    "SEQUENCE_CODE": "GACAAAGCGAAAGCTGTC (((..(((....))))))",
    "QUANTITY_KIND": "Tm",
    "READOUT_VALUE": 50.6
  },
  {
    "SEQUENCE_CODE": "GGGTGGACGAAAGTCCCC (((..(((....))))))",
    "QUANTITY_KIND": "Tm",
    "READOUT_VALUE": 49.7
  }
]

**Q:** For the sequence GCATGTGGAAACATGTGC (((..((....))..))) , give its measured Tm value.
**A:** 49.6

* * *

- ASSAY_PROCEDURE: melting temperature; fluorescence melt of hairpins on a sequencing array, two-state fit, raised by 9.35 °C to match UV melts
- COND: sodium 0.088 M
Lab note: anything with Tm below 50 °C is marked TRUE; values at 50 °C or higher are marked FALSE.

[
  {
    "SEQUENCE_CODE": "GCACTAGAAATAGTGC ((((((....))))))",
    "CLASS_NAME": "FALSE"
  },
  {
    "SEQUENCE_CODE": "GCGCTCGAAAGAGCCCGC ((((((....)))..)))",
    "CLASS_NAME": "TRUE"
  },
  {
    "SEQUENCE_CODE": "GAGCTCCGAAAGGACCTC (((.(((....))).)))",
    "CLASS_NAME": "TRUE"
  }
]

**Q:** Threshold test, Tm < 50 °C: GTGCGGGGAAACCCGCGC (.(((((....))))).)
**A:** FALSE

* * *

- ASSAY_PROCEDURE: folding enthalpy; higher = less favourable; fluorescence melt of hairpins on a sequencing array, two-state fit
- COND: sodium 0.088 M
Record form. Attribute: folding enthalpy. Fill in for each entry.
Numbers only, in kcal/mol.

Answered cases to consult:
[
  {
    "SEQUENCE_CODE": "GGGAATCGAAAGATGCCC (((.(((....))).)))",
    "QUANTITY_KIND": "folding enthalpy",
    "READOUT_VALUE": -44.3
  },
  {
    "SEQUENCE_CODE": "GCGGATCCCGC ((((...))))",
    "QUANTITY_KIND": "folding enthalpy",
    "READOUT_VALUE": -23.4
  }
]

Consider the record given below.
**Q:** Write down folding enthalpy measured for item GTATGTCGAAAGACTAC (((.(((....))))))
**A:** -19.2

* * *

- ASSAY_PROCEDURE: melting temperature; fluorescence melt of hairpins on a sequencing array, two-state fit, raised by 9.35 °C to match UV melts
- COND: sodium 0.088 M
QUANTITY_KIND: Tm
Reply with the number and its unit after it.

Look at each sequence and report its Tm.
1. GTTGCCGGAAACGGCGAC ((.((((....)))).))
2. GATCGCTAAGCGATC ((((((...))))))
3. GGAGGTGGAAACACTTCC (((.(((....))).)))
4. GGCTCTGAAAAGAGCC ((((((....))))))
5. GGACCCGGAAACAGGCCC ((.((.(....).)).))
6. GATCGGTTACCGATC ((((((...))))))

**A:**
1: 64.1 °C; 2: 67.9 °C; 3: 48.2 °C; 4: 68.9 °C; 5: 29 °C; 6: 59.3 °C

**Q:** Write down Tm measured for item GATGCGCCGAAAGGCATC (((..(((....))))))
**A:** 31.4 °C

* * *

- ASSAY_PROCEDURE: melting temperature; fluorescence melt of hairpins on a sequencing array, two-state fit, raised by 9.35 °C to match UV melts
- COND: sodium 0.088 M
QUANTITY_KIND: Tm (°C)
Answers are plain numbers, in °C.

Worked examples, 5 sequences total:
[
  {
    "SEQUENCE_CODE": "GATAGCGAAAGCTAATC ((((((....))).)))",
    "RESULT_UNITS": "°C",
    "Tm": 40.7
  },
  {
    "SEQUENCE_CODE": "GACAACACGAAAGTGGTC (((..(((....))))))",
    "RESULT_UNITS": "°C",
    "Tm": 39.8
  },
  {
    "SEQUENCE_CODE": "GGGTGCGAAAGCAAGCCC ((((((....)))..)))",
    "RESULT_UNITS": "°C",
    "Tm": 53.8
  },
  {
    "SEQUENCE_CODE": "GTATGTGGAAACGCATAC (((((.(....).)))))",
    "RESULT_UNITS": "°C",
    "Tm": 46.9
  },
  {
    "SEQUENCE_CODE": "GGGCTACGAAAGTAACCC (((.(((....))).)))",
    "RESULT_UNITS": "°C",
    "Tm": 52
  }
]

Please give Tm, item by item, for the list that follows.
1. GGCGCCGAAAGGCACGCC ((((((....)))..)))
2. GATCGACCACTCGATC ((((((....))))))
3. GAGTTCGGAAACGAACTC (((((((....)))))))
4. GATCAGTCACTGATC ((((((...))))))
5. GTCCACCGAAAGGTGAC (((.(((....))))))

**A:**
1: 63.4; 2: 50.5; 3: 67.3; 4: 50.1; 5: 46.1

**Q:** Retrieve Tm measured for GTATCTGGAAACAGATAC (((((((....))))))) and print it.
**A:** 56.1

* * *

- ASSAY_PROCEDURE: folding enthalpy; higher = less favourable; fluorescence melt of hairpins on a sequencing array, two-state fit
- COND: sodium 0.088 M
QUANTITY_KIND: folding enthalpy (kcal/mol)
Give bare numbers, in kcal/mol.

Answered examples (4):
[
  {
    "SEQUENCE_CODE": "GGGACCCGAAAGGGCCCC (((.(((....))).)))",
    "folding enthalpy, kcal/mol": -23.6
  },
  {
    "SEQUENCE_CODE": "GGGTGTCGAAAGACCCCC (((.(((....))).)))",
    "folding enthalpy, kcal/mol": -24.2
  },
  {
    "SEQUENCE_CODE": "CGATCGGAAACGACTTCG ((((((....)))..)))",
    "folding enthalpy, kcal/mol": -11.3
  },
  {
    "SEQUENCE_CODE": "GCGGCGGCGAAAGCCCGC (((..(((....))))))",
    "folding enthalpy, kcal/mol": -12.3
  }
]

Below is a list of sequences. For each, state its recorded folding enthalpy.
1. GTAAGCACGAAAGTGTAC (((..(((....))))))
2. GTAACCGAAAGGTTTTAC ((((((....)))..)))
3. GATCAGTAATCTGATC ((((((....))))))
4. GCGGAGCCGAAAGGCCGC (((..(((....))))))

**A:**
1. -9.4
2. -8.83
3. -36
4. -18.8

Hi there! I need folding enthalpy for each item below, if you can.
1. GATCGGAGCGCCGATC ((((((....))))))
2. GATCCGAATTCGGATC ((((((....))))))
3. GGACCCGGAAACAGGCCC ((.((.(....).)).))
4. GAAACACCGAAAGGTTTC (((..(((....))))))
5. GTTAGTGGAAACATTAAC ((((.((....)).))))
6. GCTACGCGAAAGCCCAGC (((..((....))..)))

**A:**
1. -31.4
2. -43.3
3. -16.9
4. -17.4
5. -19.2
6. -6.89

Give one value of folding enthalpy per listed sequence.
1. GTAAGTCGAAAGACATAC (((.(((....))).)))
2. GATCAGCTGCTGATC ((((((...))))))
3. GATCCGACGCCGGATC ((((((....))))))
4. GCAAGCGAAAGCTTTGC ((((((....))).)))
5. GGCTACGAAAGTATGCC ((((((....))).)))

**A:**
[-21.5, -47.7, -36.7, -21, -37.8]

Dear reader, for each entry below, please note its folding enthalpy.
1. CGCGGACGCTCCGCG ((((((...))))))
2. GGTCAGGGAAACCTAACC (((.(((....))).)))
3. GTTACTCGAAAGAGAAAC (((.(((....))).)))
4. GATCCGACCACGGATC ((((((....))))))

**A:**
1: -31.7; 2: -24.6; 3: -28.2; 4: -36.9

Please state, for each entry, its recorded folding enthalpy.
1. GATCACCCATGTGATC ((((((....))))))
2. GAGGGACCGAAAGGTCTC (((..(((....))))))
3. CGCAAACGGAAACGTGCG (((..(((....))))))
4. GCAGTCCGAAAGGATTGC (((.(((....))).)))
5. GATCTTCCTGAAGATC ((((((....))))))
6. GATCTAGCTATAGATC ((((((....))))))

**A:**
[-33.8, -11.6, -36.2, -46.3, -39.8, -40.2]

Batch request: folding enthalpy per item, same order as input.
1. GATCTCACTAGAGATC ((((((....))))))
2. GAATCAGGAAACTGATCC (.(((((....))))).)
3. GATCCGGTGCCGGATC ((((((....))))))

**A:**
1. -40.9
2. -15.4
3. -59.2

The following sequences each have a reported value; give each one's folding enthalpy.
1. GACGGTGCGAAAGCAGTC (((..(((....))))))
2. GGTGGGGGAAACCCCGCC ((.((((....)))).))
3. GTGTAACGAAAGTTCCAC (((.(((....))).)))
4. GCGATTGTCGC ((((...))))
5. GGTTAACGAAAGTTACC (((.(((....))))))

**A:**
[-16.9, -27.5, -22.6, -19.6, -21.9]

Hello, I would appreciate it if you could give folding enthalpy for each entry below.
1. GATCTTCGGTAAGATC ((((((....))))))
2. GCACTCGAAAGAGCATGC ((((((....)))..)))
3. GATCTCTAGTGAGATC ((((((....))))))
4. GTTCTCCGAAAGGAAAC (((.(((....))))))
5. GGGTGGGGAAACCCACTC (.(((((....))))).)

**A:**
-34
-14.4
-36.9
-16
-16.7

Please supply folding enthalpy for each of the following items, keeping them in order.
1. GTGCTCGAAAGAGAACAC ((((((....)))..)))
2. GCGGCTGCCGC ((((...))))

**A:**
1. -19.6
2. -31.2
